target: recombinant human MASP2 active protease (amino acids 297-686, C-terminal His Tag) (human, UniProt O00187 297-686); assay: cell-based or functional assay
Sequence (O00187 other isoform, or with tags, fused parts or gaps limits assumed): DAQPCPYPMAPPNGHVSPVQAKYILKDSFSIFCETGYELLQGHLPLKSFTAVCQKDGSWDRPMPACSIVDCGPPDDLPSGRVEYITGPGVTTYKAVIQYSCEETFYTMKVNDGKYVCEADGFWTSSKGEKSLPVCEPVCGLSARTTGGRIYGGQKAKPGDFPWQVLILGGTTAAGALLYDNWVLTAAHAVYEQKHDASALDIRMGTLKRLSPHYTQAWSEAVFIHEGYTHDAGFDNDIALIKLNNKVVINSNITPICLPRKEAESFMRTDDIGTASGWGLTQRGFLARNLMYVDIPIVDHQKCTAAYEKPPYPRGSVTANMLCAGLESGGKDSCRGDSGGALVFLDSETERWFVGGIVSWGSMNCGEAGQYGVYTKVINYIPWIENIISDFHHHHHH
Bridge positions count the residues as written; N and C are the ends. Square brackets hold non-standard residues; d marks the D form. Ends that are not written are not given here. Oic = O=C(O)[C@@H]1C[C@@H]2CCCC[C@@H]2N1; tBuAla = CC(C)(C)C[C@H](N)C(=O)O; Pen = CC(C)(S)[C@H](N)C(=O)O; Sar = CNCC(=O)O
# key: entry, value: human MASP2 IC50
API: value field is a number in nM; no unit string.

- [Sar]ICKRS[tBuAla]PPI[Pen]IP-NH2 (disulfide 3-11; N-terminus assumed; SMILES CC[C@H](C)[C@H](NC(=O)CNC)C(=O)N[C@H]1CSSC(C)(C)[C@@H](C(=O)N[C@H](C(=O)N2CCC[C@H]2C(N)=O)[C@@H](C)CC)NC(=O)[C@H]([C@@H](C)CC)NC(=O)[C@@H]2CCCN2C(=O)[C@@H]2CCCN2C(=O)[C@H](CC(C)(C)C)NC(=O)[C@H](CO)NC(=O)[C@H](CCCNC(=N)N)NC(=O)[C@H](CCCCN)NC1=O) [Example 412: ((N-Me)G)-IC+KRS-((tBu)A)-PPI-(Pen)+IP-NH2]: 5000
- [Sar]ICSRSLP[Oic]I[Pen]I[5‑Azaspiro(2.4)heptane‑1‑carboxylic acid]-OH (disulfide 3-11) [Example 419: ((N-Me)G)-IC+SRSLP-(Oic)-I-(Pen)+I-((5-Azaspiro[2.4]heptane-1-carboxylic acid)-OH]: 100

# lookup: human MASP2 IC50 of ICSRSLP[Oic]I[Pen]IP-NH2 (disulfide 2-10; N-terminus assumed; SMILES CC[C@H](C)[C@H](N)C(=O)N[C@H]1CSSC(C)(C)[C@@H](C(=O)N[C@H](C(=O)N2CCC[C@H]2C(N)=O)[C@@H](C)CC)NC(=O)[C@H]([C@@H](C)CC)NC(=O)[C@@H]2C[C@@H]3CCCC[C@@H]3N2C(=O)[C@@H]2CCCN2C(=O)[C@H](CC(C)C)NC(=O)[C@H](CO)NC(=O)[C@H](CCCNC(=N)N)NC(=O)[C@H](CO)NC1=O) [Example 336: IC+SRSLP-(Oic)-I-(Pen)+IP-NH2]
690
